// reported normalized growth for each item listed
Assay: chemical genetic growth profiling, strain panel (AID 1159580);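 note: tested at 20 µM; growth read once vehicle control cultures reached saturation at 30 °C; 1 = growth at the plate median or of vehicle wells; lower values mean less growth of the strain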
Conditions: S. cerevisiae deletion strains, growth OD, locus YOR316C, strain cot1, active compounds read low
Out of some 5,500 compounds screened, about 2,000 (36%) were called active. About 18% were inconclusive and are not listed. This is one part of the list.
Endpoint Name: normalized growth

molecule="CC1OC1P(=O)(O)O (configuration not stated)" recorded_measurement=0.993
molecule=COc1ccc(CCN2CCC(Nc3nc4ccccc4n3Cc3ccc(F)cc3)CC2)cc1 recorded_measurement=0.994
molecule="Nc1ccn(C2O[C@H](CO)[C@@H](O)[C@@H]2O)c(=O)n1 (some centres not stated)" recorded_measurement=0.993
molecule=COc1cc2occ(-c3ccccc3)c(=O)c2c(OC)c1C recorded_measurement=0.937
molecule=COc1cc(-c2coc3cc(OC)c(OC)c(OC)c3c2=O)cc(OC)c1OC recorded_measurement=0.99
molecule=CC(=O)OCC[C@H](C)CCC=C(C)C recorded_measurement=1.02
molecule=COc1cc(-c2coc3cc(OCc4ccccc4)c(OC)c(O)c3c2=O)cc(O)c1OC recorded_measurement=0.996
